Test: In vitro cell permeability / P-gp substrate assay
Settings: LLC-PK1, Papp BA, LLC-MDR1, basolateral to apical, no inhibitor
metric.name: Papp B→A (×10⁻⁶ cm/s)
Quick reminder: number only, in ×10⁻⁶ cm/s, skip the unit.

*Q* Look up Papp B→A for this compound: CSCC[C@@H]1NC(=O)CNC(=O)CNC(=O)[C@H](C)NC(=O)[C@H](C(C)C)NC(=O)CNC(=O)[C@H](CC(C)C)NC(=O)[C@@H]2CCCN2C(=O)[C@H](CC(=O)O)NC(=O)[C@H](CCC(=O)O)NC(=O)[C@H](Cc2ccc(O)cc2)NC(=O)[C@H](CC(C)C)NC(=O)[C@H](CO)NC(=O)[C@H](C(C)C)NC(=O)[C@H]2CCCN2C(=O)[C@@H]2CCCN2C(=O)[C@H](Cc2ccc(O)cc2)NC(=O)[C@H](C(C)C)NC(=O)CNC1=O [CP1]
*A* 0.33
